- TEST DETAILS: Metabolic stability in mouse hepatic microsomes with NADPH-generating system
- Format: in vitro ADME
- STUDY CONDITIONS: pH 7.4; calculated from in vitro half-life, mouse liver microsomes
QUANTITY: microsomal CLint at 1 μM (µL/min/mg)

1 = N#Cc1ccc(CNC(=O)CCCCCN2CCN(c3ccccc3-c3ccccc3)CC2)cc1 [LP-211, reference compound]
2 = COc1ccc(-c2ccccc2N2CCN(CCCCCC(=O)NCc3ccc(F)nc3)CC2)cc1
For the pair 1 and 2 , which member has the lower microsomal CLint at 1 μM number? Please reply using the label of the selected record. 1
